assay: Inhibition of [3H]citalopram Binding to the Serotonin Transporter in Rhesus (Macaca mulatta) or Cynomolgus Monkey (Macaca fascicularis) Caudate-Putamen
Reported IC50 by item:
measuredProperty: IC50

* COC(=O)[C@H](c1ccccc1)[C@@H]1CCCCO1 (single isomer, unassigned) | > 100 µM
* COC(=O)[C@@H](c1ccccc1)[C@@H]1CCCCO1 | > 100 µM
* COC(=O)[C@H](c1ccc(Cl)c(Cl)c1)[C@H]1CCCCO1 | > 10 µM
* COC(=O)C(c1ccccc1)C1CCCCN1 (racemic) [METHYLPHENIDATE] | > 100 µM
* COC(=O)[C@H](c1ccc(Cl)c(Cl)c1)[C@@H]1CCCCO1 (single isomer, unassigned; 15) | > 10 µM
